From: ChEMBL document CHEMBL1138419

assay: Aqueous solubility in PBS at pH 7.4; format: physicochemical
Below is a list of entries, each paired with its recorded solubility value.
Report only the number, with the unit µM understood.

get_value(item= "O=C1[C@H]2Cc3c([nH]c4ccccc34)[C@@H](c3ccc4c(c3)OCO4)N2C(=O)CN1c1ccccc1" , readout=solubility) returns 2.4

get_value(item= "O=C1[C@H]2Cc3c([nH]c4ccccc34)[C@@H](c3ccc4c(c3)OCO4)N2C(=O)CN1c1cncnc1" , readout=solubility) returns 25

get_value(item= "O=C1[C@H]2Cc3c([nH]c4ccccc34)[C@@H](c3ccc4c(c3)OCO4)N2C(=O)CN1c1cccnc1" , readout=solubility) returns 33

get_value(item= "CN1CC(=O)N2[C@H](c3ccc4c(c3)OCO4)c3[nH]c4ccccc4c3C[C@@H]2C1=O" , readout=solubility) returns 9.7

----------
Target or system cGMP-specific 3',5'-cyclic phosphodiesterase (Bos taurus, UniProt Q28156): recorded pIC50 listed per item.
// field semantics: pIC50 = negative decimal log of concentration (mol/L)

Solved entries:
- Structure Smiles: "CCCCc1ccc(N2CC(=O)N3[C@H](c4ccc5c(c4)OCO5)c4[nH]c5ccccc5c4C[C@@H]3C2=O)cc1"
  pIC50: 6.82
- Structure Smiles: "O=C1[C@H]2Cc3c([nH]c4ccccc34)[C@@H](c3ccc4c(c3)OCO4)N2C(=O)CN1c1ccsc1"
  pIC50: 7.74
- Structure Smiles: "O=C1[C@H]2Cc3c([nH]c4ccccc34)[C@@H](c3ccc4c(c3)OCO4)N2C(=O)CN1c1cccs1"
  pIC50: 7.24
- Structure Smiles: "O=C1[C@H]2Cc3c([nH]c4ccccc34)[C@@H](c3ccc4c(c3)OCO4)N2C(=O)CN1c1ccccc1"
  pIC50: 7.04

Now for a further compound.
get_value(item= "O=C1[C@H]2Cc3c([nH]c4ccccc34)[C@@H](c3ccc4c(c3)OCO4)N2C(=O)CN1c1cncnc1" , readout=pIC50) returns 7.28
